# Tested on: HEK-293T
# experiment summary: Incucyte cell viability with HEK293T; further: filed as whole numbers so only -1 and 0 and 1 occur
# Format: toxicity, cell-based
# experimental setup: human, 24 h, 10 µM, compound concentration 10 uM, replicate number 1, timepoint 24 hours
Recorded measurements of Growth Rate, one per entry

# compound, measurement target, Growth Rate
records = [
    ("COc1cccc(-c2c(C)n(Cc3c(F)cccc3C(F)(F)F)c(=O)n(C[C@H](NCCCC(=O)[O-])c3ccccc3)c2=O)c1F.[Na+] [ELAGOLIX SODIUM]", "HEK-293T", 1),
    ("CC(C)c1cc(Nc2nc(N3CCC[C@H](N)C3)ncc2C(N)=O)cc(C(C)C)n1", "HEK-293T", 0),
    ("Cc1c(C2=CCN(C(=O)N(C)C(C)C)CC2)nnn1-c1cccnc1F", "HEK-293T", 1),
    ("C[C@@H](Oc1cc(-n2cnc3ccc(CN4CCN(C)CC4)cc32)sc1C(N)=O)c1ccccc1C(F)(F)F [GSK-461364]", "HEK-293T", 0),
    ("c1cc(CN2CCCNCCNCCCNCC2)ccc1CN1CCCNCCNCCCNCC1 [PLERIXAFOR]", "HEK-293T", 0),
    ("Cc1ccc2[nH]c(CNCCCc3ccncc3)cc(=O)c2c1 [UCSF924NC]", "HEK-293T", 0),
    ("CCCCC#Cc1nc(NC)c2ncn([C@@H]3O[C@H](CO)[C@@H](O)[C@H]3O)c2n1", "HEK-293T", 0),
    ("CC1=C2C[C@H]3[C@@H](CC=C4C[C@@H](O)CC[C@@]43C)[C@@H]2CC[C@]12O[C@@H]1C[C@H](C)CN[C@H]1[C@H]2C [CYCLOPAMINE]", "HEK-293T", 0),
]
